Reference for the values: PubChem BioAssay (NCI)

system: MALME-3M melanoma; experiment: NCI-60 one-dose screen, 48 h (100 = growth as untreated, 0 = no growth, -100 = all killed); conditions: 10 µM unless noted
About 83,000 compounds went through this panel and 20% of them were active in at least one assay; those are over-represented in the sample as a whole.
As shown below, each of these molecules has a reported growth value.
property-name: growth (%)

{"columns": ["molecule", "tgt", "reported-value"],
 "data": [
  ["CC/C=C/[C@@H]1C=C[C@@H]2CCC[C@H]2[C@@H]1CC[C@H](O)[C@H](C)N", "MALME-3M melanoma", -80.2],
  ["CCN(CC)CC(=O)Nc1cccc(C(=O)OC(C)C)c1", "MALME-3M melanoma", 99.5],
  ["COc1cc(/C=C/C(=O)c2cccc(-n3cc(-c4ccc(Cl)cc4)[nH]c3=O)c2)cc(OC)c1OC", "MALME-3M melanoma", 94.2],
  ["COc1ccc(/C(C)=C(\\c2ccc(Cl)cc2)c2ccc(OCCN3CCCCCC3)cc2)cc1F", "MALME-3M melanoma", -3.61],
  ["COc1ccc(OC)c(Nc2nc3nonc3nc2Nc2cccc(Br)c2)c1", "MALME-3M melanoma", 11.3],
  ["CCCCN(Cc1ccc(C(=O)NO)cc1)C(=O)Nc1ccc(OCCCCCCCCCn2cc(CCCCC(=O)N[C@H](C(=O)N3C[C@H](O)C[C@H]3C(=O)NCc3ccc(-c4scnc4C)cc3)C(C)(C)C)nn2)cc1", "MALME-3M melanoma", 23.8],
  ["COc1ccc(/C=C2\\C=C(c3ccccc3)N(CCc3ccccc3)C2=O)cc1OC", "MALME-3M melanoma", 39.3],
  ["O=C(C[C@@]1(O)C(=O)Nc2c(Cl)ccc(Cl)c21)c1ccc(C2CC2)cc1", "MALME-3M melanoma", 41.9],
  ["COC(=O)CCCNC(=O)C(=O)c1c(O)c(O)c(C(C)C)c2cc(C)c(-c3c(C)cc4c(C(C)C)c(O)c(O)c(C(=O)C(=O)NCCCC(=O)OC)c4c3O)c(O)c12", "MALME-3M melanoma", 19.7],
  ["O=S(=O)(NCCNc1cc(-c2c(-c3cccc(O)c3)nc3sccn23)ccn1)c1ccc(Cl)cc1", "MALME-3M melanoma", 94],
  ["COc1ccc(/C=N/NC(=O)Cn2c(-c3ccc(S(C)(=O)=O)cc3)nc3cc(Cl)ccc32)cc1", "MALME-3M melanoma", 65.8],
  ["C[N+](C)(C)CCOC(OCC[N+](C)(C)C)(c1ccccc1)c1ccccc1", "MALME-3M melanoma", 126],
  ["O=C1NC(=S)S/C1=C\\N1N=C(c2ccc(Cl)cc2)CC1c1ccc(F)cc1 (stereo not drawn)", "MALME-3M melanoma", 83.7],
  ["COC(=O)[C@]12CC[C@@H](C)[C@H](C)[C@@H]1C1=CC[C@@H]3[C@@]4(C)C(C=O)=C[C@@](C)(CO)C4=CC[C@@]3(C)[C@]1(C)CC2", "MALME-3M melanoma", 60.1],
  ["Cc1cc(=O)c2cc3nc(-c4cccnc4)oc3c(Br)c2o1", "MALME-3M melanoma", 98.7],
  ["CN(C)CCC(O)(Cc1ccccc1)c1ccccc1 (stereo not drawn)", "MALME-3M melanoma", 114],
  ["CCCN1CCN(c2ccc3nc(-c4ccc5nc(-c6cc(OC)c(OC)c(OC)c6)[nH]c5c4)[nH]c3c2)CC1", "MALME-3M melanoma", 7.58],
  ["CCCCOc1ccc(NC(=O)n2nc(N=NN(C)C)c3ccc(Cl)cc32)cc1", "MALME-3M melanoma", 122]
]}

###

test system: SR leukemia; experiment: NCI-60 one-dose screen, 48 h (100 = growth as untreated, 0 = no growth, -100 = all killed); conditions: 10 µM unless noted
About 83,000 compounds went through this panel and 20% of them were active in at least one assay; those are over-represented in the sample as a whole.
Binary call on growth with cut-off 10%: strictly below means label 1, and equality or higher means label 0.

{"columns": ["molecule", "group"],
 "data": [
  ["O=C1CCC(N2C(=O)c3cccc(NCCCC4CCN(CCNC(=O)c5cc6c(o5)C(=O)c5ccccc5C6=O)CC4)c3C2=O)C(=O)N1 (stereo not given)", "label 0"],
  ["CC(C)CCC[C@@H](C)[C@H]1CCC2C3=CCC4C(=O)C=CC(=O)C4C3CC[C@@]21C (stereo not given in full)", "label 0"],
  ["COc1ccc(OC)c(C(=O)Nc2cccc(-c3cc(=O)c4ccccc4o3)c2)c1", "label 0"],
  ["Cc1cnc(Nc2ccc(N3CCN(C)CC3)cc2)nc1Nc1ccc(Cl)c(NS(=O)(=O)C(C)(C)C)c1", "label 1"],
  ["O=C1c2ccccc2C2(c3ccc(O)cc3)c3ccccc3Oc3cccc1c32 (stereo not given)", "label 1"],
  ["COc1ccc(C2CC(c3cnccn3)=NN2)cc1OC (stereo not given)", "label 0"],
  ["C/C(=N\\NC(N)=S)c1nc2ccc(Cl)cc2[nH]1", "label 0"],
  ["CCNCCNc1cc(-c2ccc(Cl)cc2)c(C#N)c2nc3ccccc3n12", "label 1"],
  ["Cc1cc(=O)[nH]c(N/N=C/c2cc(Br)ccc2O)n1", "label 0"],
  ["CCN(CC)CCCC(C)NCc1ccccc1 (stereo not given)", "label 0"]
]}

###

tested on: HOP-62 NSCLC; experiment: NCI-60 one-dose screen, 48 h (100 = growth as untreated, 0 = no growth, -100 = all killed); settings: 10 µM unless noted
This is part of a sample that, as a whole, favours compounds with a hit. Of some 83,000 tested, about 20% had one in any assay.
As shown below, each of these compounds has a reported growth value.

{"columns": ["compound", "units-label", "growth"],
 "data": [
  ["O=C1/C(=C/c2ccccc2[N+](=O)[O-])COc2ccc(O)c(O)c21", "%", 30.3],
  ["CN1C(=O)CCC(N2C(=O)c3cccc(NCCOCCOCCNC(=O)c4cc5c(o4)C(=O)c4ccccc4C5=O)c3C2=O)C1=O (centres undefined)", "%", -59.1],
  ["CCOC(=O)c1c2c(c(C)n1C)-c1nn(Cc3ccc(OC)cc3)cc1CC2", "%", 132],
  ["O=[N+]([O-])c1ccc(-c2cc3c(Nc4ccc(OCc5cccc(Cl)c5)c(Cl)c4)ncnc3s2)cc1", "%", 67.7],
  ["O=C(Nc1ccccc1)c1sc(-c2cccc(C(F)(F)F)c2)cc1O", "%", 79.5],
  ["COc1ccc(Nc2ncc(Br)c(NCCCNC(=O)C3CCC3)n2)cc1", "%", 10.9],
  ["CC(=[N-])N1CCC[C@@H](Nc2c3ccccc3nc3ccccc23)C1.[Cl][Pt].[NH-]CCC[NH-]", "%", 51.9],
  ["CC(=O)OCCc1ccccc1", "%", 78.1],
  ["COc1ccc(C2CC(c3cnccn3)=NN2)cc1OC (centres undefined)", "%", 111],
  ["CN(C)c1ccc(-c2cc(-c3ccc(Nc4nc(Nc5ccccc5)nc(Nc5ccc(Cl)cc5)n4)cc3)nc(N)n2)cc1", "%", 33.1],
  ["CCCn1nc(-c2ccccc2)c2c(-c3ccccc3)onc2c1=O", "%", 74.2],
  ["Cc1[nH]c(-c2nc3ccccc3[nH]2)c(C)c1C(=O)N1CCOCC1", "%", 105],
  ["N=C(N)c1ccc(-c2ccc(-c3ccc(Cl)cc3Cl)o2)cc1", "%", -12.1],
  ["O=[N+]([O-])c1cccc(/C=C/c2ccccn2)c1", "%", 73.2],
  ["COc1ccc(C(=O)/C=C/C23c4ccccc4C(c4ccccc42)C2C(=O)NC(=O)C23)cc1 (centres undefined)", "%", 96.4],
  ["CC[C@]1(O)C[C@H]2CN(CCc3c([nH]c4ccccc34)[C@@](C(=O)OC)(c3cc4c(cc3OC)N(C=O)[C@H]3[C@@](O)(C(=O)OC)[C@H](OC(C)=O)[C@]5(CC)C=CCN6CC[C@]43[C@@H]65)C2)C1", "%", 11.7],
  ["O=C(NC1CCOCC1)c1ccc2c(c1)CN(c1ncc(Cc3cccc(-n4cccn4)c3)s1)CC2", "%", 104],
  ["CSc1ncc(C)c(Nc2ccc(Cl)cc2)n1", "%", 111],
  ["CCNCCNc1cc(-c2ccc(F)cc2)c(C#N)c2nc3ccccc3n12", "%", 75.6],
  ["C=C1C(=O)O[C@H]2[C@H]1CC/C(COC(=O)/C=C\\C(=O)NCc1ccc(Cn3c(=O)sn(-c4ccc(C#N)cc4)c3=O)cc1)=C\\CC[C@@]1(C)O[C@@H]21", "%", -37.3],
  ["O=C1C2=C(CCN(Cc3ccccc3)C2)N2CCN=C2N1Cc1ccc(F)cc1F", "%", 33.6],
  ["COc1cc(-c2cccc([N+](=O)[O-])c2)c(-c2nc(-c3ccccc3)c(-c3ccccc3)n2C2CC2)cc1OC", "%", 92.6],
  ["COc1cc(-c2ccc(N=Nc3c(O)c(C(=O)Nc4ccccc4OC)cc4ccccc34)c(OC)c2)ccc1N=Nc1c(O)c(C(=O)Nc2ccccc2OC)cc2ccccc12", "%", 80.6],
  ["COc1ccc(/C=C2\\COc3ccc(O)cc3C2=O)cc1OC", "%", 76],
  ["CN(C)c1ccc(/C=N/NC(=O)COc2cc(=O)n(C)c3ccccc23)cc1", "%", 95.7],
  ["C=C1c2c(C)nn(-c3ccc(NC(C)=O)cc3)c2N(C)C23CC1C1(C)c4c(C)nn(-c5ccc(NC(C)=O)cc5)c4N(C)C(C)(CC12)C3 (centres undefined)", "%", 55.9],
  ["Cc1cc(C)on1", "%", 111],
  ["Cc1cc(N(CCCNc2ccnc3cc(Cl)ccc23)Cc2ccccn2)nc(N2CCCC2)n1", "%", 68.4],
  ["COc1ccccc1NC(=O)Nc1ccc(-c2nc3ccccc3o2)cc1", "%", 95.8],
  ["CC(C)(C)CC(C)(C)Nc1c(-c2ccc(-c3ccccc3)cc2)nc2cnccn12", "%", 79.9],
  ["O=C1CSC(c2ccccc2Cl)N1c1nnc(Cn2cnnc2)o1 (centres undefined)", "%", 37.3],
  ["CC[C@@H](C[C@H](CCO)c1ccccc1)c1cc2ccccc2o1", "%", 84.4],
  ["CC(C)CCC[C@@H](C)[C@H]1CCC2C3=CCn4c(=O)ccc(=O)n4C3CC[C@@]21C (some centres undefined)", "%", -93.3],
  ["CCOc1cccnc1/C=N/NC(N)=S", "%", 64.9],
  ["N=C(N)c1ccc(-c2ccc(-c3ccc(Cl)cn3)s2)cc1", "%", 56.3],
  ["Clc1cnc(Nc2ccc(OCCN3CCCC3)cc2)nc1NCc1ccco1", "%", 11.7],
  ["COC(=O)c1ccc2oc(NC(=O)c3ccc(N4CCOCC4)c([N+](=O)[O-])c3)nc2c1", "%", 82.3],
  ["NC(=O)CC1(O)C=C(Br)C(=O)C(Br)=C1", "%", 108],
  ["CN(C)c1ccc2cc(-c3ccc(Cl)c(Cl)c3)c(N)nc2c1", "%", 66.2]
]}
